target: LRRK2(G2019S) (Homo sapiens, UniProt Q5S007, G2019S); assay: LRRK2 G2019S kinase inhibition assay (ADP-Glo); format: biochemical; parameters: purchased SignalChem L10-12GG; details: Table 2, class symbols; read-out: Enzyme activity against LRRK2 G2019S (IC50)
Sequence (Q5S007 970-2527 G2019S limits assumed): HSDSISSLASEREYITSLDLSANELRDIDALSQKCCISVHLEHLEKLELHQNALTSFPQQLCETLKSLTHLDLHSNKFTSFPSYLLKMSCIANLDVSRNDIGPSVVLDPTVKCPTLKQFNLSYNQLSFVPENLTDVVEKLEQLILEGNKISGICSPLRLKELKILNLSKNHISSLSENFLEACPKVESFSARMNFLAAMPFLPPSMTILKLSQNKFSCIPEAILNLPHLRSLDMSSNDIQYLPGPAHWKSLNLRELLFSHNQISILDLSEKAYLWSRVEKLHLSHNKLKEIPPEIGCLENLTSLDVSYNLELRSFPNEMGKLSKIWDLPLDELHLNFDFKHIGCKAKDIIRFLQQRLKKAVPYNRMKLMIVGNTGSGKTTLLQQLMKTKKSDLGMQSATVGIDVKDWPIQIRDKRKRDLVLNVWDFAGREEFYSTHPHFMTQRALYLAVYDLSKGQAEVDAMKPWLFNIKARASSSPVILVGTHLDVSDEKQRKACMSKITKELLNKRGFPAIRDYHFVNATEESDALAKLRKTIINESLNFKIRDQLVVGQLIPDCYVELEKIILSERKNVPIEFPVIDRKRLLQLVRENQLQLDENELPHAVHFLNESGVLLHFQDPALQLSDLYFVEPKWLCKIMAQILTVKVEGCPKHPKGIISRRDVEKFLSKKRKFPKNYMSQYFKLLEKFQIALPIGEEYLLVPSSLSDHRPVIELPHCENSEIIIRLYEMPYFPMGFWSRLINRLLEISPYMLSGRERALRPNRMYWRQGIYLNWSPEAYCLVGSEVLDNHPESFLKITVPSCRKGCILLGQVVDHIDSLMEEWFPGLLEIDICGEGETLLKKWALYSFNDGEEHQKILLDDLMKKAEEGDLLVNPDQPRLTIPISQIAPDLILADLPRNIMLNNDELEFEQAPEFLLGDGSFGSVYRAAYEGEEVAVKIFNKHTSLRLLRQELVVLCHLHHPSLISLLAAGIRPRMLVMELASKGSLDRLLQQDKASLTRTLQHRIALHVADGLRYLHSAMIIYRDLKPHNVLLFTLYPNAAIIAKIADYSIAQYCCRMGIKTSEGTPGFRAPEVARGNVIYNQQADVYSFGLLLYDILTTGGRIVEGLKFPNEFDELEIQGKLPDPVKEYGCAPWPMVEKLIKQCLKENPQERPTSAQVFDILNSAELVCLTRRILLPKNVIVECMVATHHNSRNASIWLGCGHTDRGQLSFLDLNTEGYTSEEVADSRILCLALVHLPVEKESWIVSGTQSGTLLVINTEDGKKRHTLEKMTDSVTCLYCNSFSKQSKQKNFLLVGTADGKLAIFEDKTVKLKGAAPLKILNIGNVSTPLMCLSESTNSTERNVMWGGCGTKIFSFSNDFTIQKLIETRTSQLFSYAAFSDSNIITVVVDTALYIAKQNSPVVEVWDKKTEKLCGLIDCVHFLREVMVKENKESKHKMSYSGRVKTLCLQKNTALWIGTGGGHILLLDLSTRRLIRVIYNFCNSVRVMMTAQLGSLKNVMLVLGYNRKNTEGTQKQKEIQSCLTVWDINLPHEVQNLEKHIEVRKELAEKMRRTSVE
pIC50: −log10 of the molar value.
experimental-readout: pIC50

CCNc1c(-c2ccc(C(=O)N3CCOCC3)cc2)cnc2[nH]cc(Cl)c12    7.00 to 8.00
CNc1c(-c2ccc(C(=O)N3CCOCC3)cc2)cnc2[nH]cc(Cl)c12    > 8.00
CC(=O)N1CC[C@H](n2cc(-c3cnc4[nH]ccc4c3NC3CCCC3)cn2)[C@@H](F)C1    7.00 to 8.00
O=C(c1ccc(-c2cnc3[nH]cc(Cl)c3c2NC2CC2)cc1)N1CCOCC1    7.00 to 8.00
CCNc1c(-c2ccc(C(=O)N3CCC(N4CCOCC4)CC3)cc2)cnc2[nH]cc(Cl)c12    7.00 to 8.00

Request: Give recorded pIC50 with LRRK2(G2019S) (Homo sapiens, UniProt Q5S007, G2019S) for the following compound: "CC(C)Nc1c(-c2ccc(C(=O)N3CCOCC3)cc2)cnc2[nH]ccc12"
Response: 7.00 to 8.00

Request: Return pIC50 measured with LRRK2(G2019S) (Homo sapiens, UniProt Q5S007, G2019S) given this compound: "CC(C)Nc1c(-c2ccc(C(=O)N3CCC(N4CCOCC4)CC3)cc2)cnc2[nH]ccc12"
Response: 7.00 to 8.00

Request: For the record "CNc1c(-c2ccc(C(=O)N3CCC(N4CCOCC4)CC3)cc2)cnc2[nH]cc(Cl)c12" , what value of pIC50 is listed for LRRK2(G2019S) (Homo sapiens, UniProt Q5S007, G2019S)?
Response: > 8.00

Request: Report pIC50 for "CCNc1c(-c2cnn([C@H]3CCN(C(C)=O)C[C@@H]3F)c2)cnc2[nH]cc(Cl)c12" tested on LRRK2(G2019S) (Homo sapiens, UniProt Q5S007, G2019S).
Response: 7.00 to 8.00

Request: # get_value(readout= pIC50, system= LRRK2(G2019S) (Homo sapiens, UniProt Q5S007, G2019S)) for "CNc1c(-c2cnn([C@H]3CCN(C(C)=O)C[C@@H]3F)c2)cnc2[nH]cc(Cl)c12"
Response: 7.00 to 8.00

Request: # returns recorded pIC50 (system: LRRK2(G2019S) (Homo sapiens, UniProt Q5S007, G2019S)) for "O=C(c1ccc(-c2cnc3[nH]cc(Cl)c3c2NC2CC2)cc1)N1CCC(N2CCOCC2)CC1"
Response: < 7.00

Request: Hi! What's the reported pIC50 for "F[C@H]1CN(C2COC2)CC[C@@H]1n1cc(-c2cnc3[nH]ccc3c2NC2CCCC2)cn1" on LRRK2(G2019S) (Homo sapiens, UniProt Q5S007, G2019S)?
Response: 7.00 to 8.00

Request: Hi! What's the reported pIC50 for "CNc1c(-c2cnn([C@H]3CCN(C4COC4)C[C@@H]3F)c2)cnc2[nH]cc(Cl)c12" on LRRK2(G2019S) (Homo sapiens, UniProt Q5S007, G2019S)?
Response: 7.00 to 8.00

Request: What pIC50 appears in the records for this compound with LRRK2(G2019S) (Homo sapiens, UniProt Q5S007, G2019S)? "COCCNc1c(-c2cnn([C@H]3CCN(C(C)=O)C[C@@H]3F)c2)cnc2[nH]cc(Cl)c12"
Response: < 7.00

----------
biological target: LRRK2 WT enzyme (Homo sapiens, UniProt Q5S007); construct: purchased Thermo Fisher Scientific PR8604B; assay: LRRK2 wild type kinase inhibition assay (ADP-Glo); assay type: biochemical; details: Table 1; read-out: IC50 (nM) LRRK2 wt
Sequence (Q5S007 970-2527 limits assumed): as the sequence (Q5S007 970-2527 G2019S limits assumed) above, with S1050G counted along it
Param label: returns MET when IC50 < 40 nM, returns NOT MET otherwise, including exact equality.

These recorded examples may help you get a feel for the data.
CNc1c(-c2cnn(C(C)(C)C#N)c2)cnc2[nH]cc(Cl)c12    MET
CNc1c(-c2cnn(C3CCOCC3)c2)cnc2[nH]ccc12    NOT MET
CNc1c(-c2cnn(C3CCN(C)CC3)c2)cnc2[nH]ccc12    NOT MET

Request: # strict comparison: is reported IC50 < 40 nM? input = "CNc1c(C(F)(F)F)cnc2[nH]cc(-c3cnn(C4CCN(C)CC4)c3)c12"
Response: NOT MET

Request: Please let me know if "CCc1cc(-c2cnc3[nH]cc(Cl)c3c2NC)nn1C" shows IC50 below 40 nM.
Response: MET

Request: Bench note: check whether "CNc1c(-c2c3cc(OC)ccc3nn2C)cnc2[nH]cc(Cl)c12" shows IC50 below 40 nM
Response: NOT MET

----------
biological target: LRRK2(G2019S) (Homo sapiens, UniProt Q5S007, G2019S); experiment: LRRK2 G2019S kinase inhibition assay (ADP-Glo); assay type: biochemical; design: purchased SignalChem L10-12GG; details: Table 1; read-out: IC50 (nM) LRRK2 G2019S
Attribute: IC50
Use nM as the unit, but write only the number.

CNc1c(-c2cnn(C3CCOCC3)c2)cnc2[nH]cc(Cl)c12    15
CNc1c(-c2cnn(C(C)(C)C#N)c2)cnc2[nH]ccc12    326
CC(C)Nc1c(-c2ccn(C)n2)cnc2[nH]cc(Cl)c12    514

Request: Using the record for "CNc1c(-c2cnn(C3CCOCC3)c2)cnc2[nH]ccc12" , report its IC50.
Response: 164

Request: Which IC50 value belongs to "CNc1c(-c2cnn(C3CCN(C)CC3)c2)cnc2[nH]ccc12" ?
Response: 825

Request: Which IC50 value is on record for "CNc1c(-c2nn(C)c3ccc(C#N)cc23)cnc2[nH]cc(Cl)c12" ?
Response: 305

Request: Fill blank: measured IC50 of the molecule "CNc1c(-c2cnn(C(C)(C)C#N)c2)cnc2[nH]cc(Cl)c12" is ____.
Response: 14

Request: What value of IC50 has been reported for the following molecule? "CNc1c(C(F)(F)F)cnc2[nH]cc(-c3cnn(C(C)(C)C#N)c3)c12"
Response: 26

----------
Biological target: LRRK2 WT enzyme (Homo sapiens, UniProt Q5S007)
Construct: purchased Thermo Fisher Scientific PR8604B
Experiment: LRRK2 wild type kinase inhibition assay (ADP-Glo)
Assay type: biochemical
Conditions: Table 1; read-out: IC50 (nM) LRRK2 wt
Description: IC50 experiments were performed for inventive compounds. An exemplary kit to perform this assay includes the Adapta™ Screening Protocol and Assay Conditions by Invitrogen™ (Fisher Scientific™, Catalog No. PV5099). All LRRK2 kinase inhibition assays were conducted by using Promega ADP-Glo™ Kinase assay systems (Catalog number; V4475). […] Luminescence signals were detected using Synergy™ Neo2 microplate reader (Bio-Tek). […]
experimental-readout: IC50 (nM)
# unit: nM | format: bare number

CC(C)Nc1c(-c2ccn(C)n2)cnc2[nH]cc(Cl)c12    136

Request: Query: IC50; subject: "CNc1c(-c2nn(C)c3ccc(OC)cc23)cnc2[nH]cc(Cl)c12"
Response: 140

Request: Name the reported IC50 value associated with the molecule "CNc1c(-c2cnn(C3CCN(C)CC3)c2)cnc2[nH]cc(Cl)c12"
Response: 22

From: patent US12275731B2
